Test system: lymphocytic leukemia P388/0
protocol_details: Lymphocytic Leukemia P388/0 Test
Assay type: in vivo, mouse (CD2-F1)
Parameters: unit: mg/kg
condition_context: ip days 1, 5, 9; doses on a mg/kg basis
property: LD20

CSc1c2ccccc2c(CNC(C)(CO)CO)c2ccccc12 :: 70

Input: Query (compound): CC(CO)(CO)NCc1c2ccccc2c(N2CCOCC2)c2ccccc12 [Example 28B] ; field requested: LD20
Output: 225

Input: Query (compound): CC(CO)(CO)NCc1c2ccccc2c(Cl)c2ccccc12.Cl ; field requested: LD20
Output: 556

Input: Query (compound): Cc1c2ccccc2c(CNC(C)(CO)CO)c2ccccc12 ; field requested: LD20
Output: 140

Origin of the recorded values: patent US4803221A
